The entries below pair compounds with IC50 values for Proto-oncogene tyrosine-protein kinase Src (Homo sapiens, UniProt P12931), as found in several publications.

Retrieve IC50 measured for COc1cc(-c2cc3nccc(-c4cccc(C(=O)NC5CCNC5)c4)c3o2)cc(OC)c1OC (stereo not shown) and print it. 300 to 3000 nM

Specify IC50 for CCC(=O)N1CC(N2CCC(C#Cc3c(-c4ccc(Oc5ccccc5)cc4)c4c(N)ncnc4n3C(C)C)CC2)C1 and stop. 10 to 1000 nM

Look up and state reported IC50 for C=CC(=O)N1CC[C@@H](N2CC(C#Cc3c(-c4ccc(OC(F)(F)F)cc4)c4c(N)ncnc4n3C)C2)[C@@H](O)C1 10 to 1000 nM

Provide only the value of recorded IC50 for Cc1ccc(NC(=O)c2cccc(C(F)(F)F)c2)cc1N1CCc2nc(Nc3ccc(C(=O)N4CCCC4)cc3)ncc2C1 6 nM
